# measurement_target: T1, human APC-PPACK (active site-blocked APC) (human, UniProt P04070 43-461, active site bound by the tripeptide inhibitor Phe-Pro-Arg-chloromethylketone (PPACK))
# T1 construct: Bought (Haematologic Technologies)
# T1 sequence (P04070 other isoform, or with tags, fused parts or gaps): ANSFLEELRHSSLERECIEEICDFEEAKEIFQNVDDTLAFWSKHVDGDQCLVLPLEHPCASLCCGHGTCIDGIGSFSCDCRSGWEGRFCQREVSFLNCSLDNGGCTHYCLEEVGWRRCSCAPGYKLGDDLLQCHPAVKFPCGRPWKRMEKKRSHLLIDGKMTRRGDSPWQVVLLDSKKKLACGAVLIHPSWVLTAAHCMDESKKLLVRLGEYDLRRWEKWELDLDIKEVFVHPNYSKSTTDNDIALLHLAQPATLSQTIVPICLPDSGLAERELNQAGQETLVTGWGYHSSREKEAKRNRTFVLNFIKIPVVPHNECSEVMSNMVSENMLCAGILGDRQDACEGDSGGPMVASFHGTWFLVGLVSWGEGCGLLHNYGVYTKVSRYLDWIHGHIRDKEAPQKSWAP
# protocol_summary: ELISA
measured_endpoint: binding result

binder	result
SR16983-R3-P2-F07 (VHH) VHH: QLQLVESGGGLVQAGGSLRLSCAASGTTFDMNSMGWYRQAPGFKRDLVATISIGGDTNYADSVKGRFTISRDNAKNTVYMQMNSLKPEDTAVYYCNAERIWPNRRSFWGQGTQVTVSS	binds
SR16983-R3-P4-E11 (VHH) VHH: QLQLVEFGGGLVQAGGSLRLSCAASGSTFSFNYMGWYRQAPGNQRDLVARISSGGITNYADSVKGRFTISGDNAKNTVYLQMNSLKPEDTARYYCFYNGYLNKWGQGTQVTVSS	binds

The values you see were collected from patent US20250163183A1.
